FYI, the data here is from patent US6413935.

binders and their reported IC50
# assayed-system: T1, mouse class II IA^d, purified from A20 cells (mouse), P04228
# T1 chain 1: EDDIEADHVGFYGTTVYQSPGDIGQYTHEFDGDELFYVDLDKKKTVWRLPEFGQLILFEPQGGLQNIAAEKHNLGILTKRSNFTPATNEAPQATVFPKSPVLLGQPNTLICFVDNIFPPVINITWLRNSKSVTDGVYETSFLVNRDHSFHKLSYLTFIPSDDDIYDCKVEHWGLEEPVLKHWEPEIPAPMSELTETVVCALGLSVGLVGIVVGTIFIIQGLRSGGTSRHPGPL
# T1 chain 2: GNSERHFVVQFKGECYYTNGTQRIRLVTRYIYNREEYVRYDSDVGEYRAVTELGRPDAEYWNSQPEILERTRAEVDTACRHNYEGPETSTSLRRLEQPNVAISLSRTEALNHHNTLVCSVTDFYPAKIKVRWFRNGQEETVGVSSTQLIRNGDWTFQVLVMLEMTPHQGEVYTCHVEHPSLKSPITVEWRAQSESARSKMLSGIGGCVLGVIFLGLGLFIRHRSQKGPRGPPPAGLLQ
# protocol-description: 125I-peptide inhibition, purified class II
Non-standard residues stand in square brackets, D forms with d. No end group written: not given here. Cha = N[C@@H](CC1CCCCC1)C(=O)O
parameter-measured: IC50 (nM)

>  <binder>
ISQAVHAAHAEINE (modifications not checked) [Ova 323-336]

>  <numeric-readout>
110

$$$$
>  <binder>
[dA]A[Cha]VAAATLKAA[dA] [906.09]

>  <numeric-readout>
38

$$$$
>  <binder>
YLEDARRLKAIYEKKK (modifications not checked) [lambda rep 12-26]

>  <numeric-readout>
1100

$$$$
